Just for reference, patent US20050113566A1 is where these values come from.

Kindly state inhibition at 2 µM for each of the entries shown.
Target: c-fms (Homo sapiens, UniProt P07333)
Sequence (P07333 20-972): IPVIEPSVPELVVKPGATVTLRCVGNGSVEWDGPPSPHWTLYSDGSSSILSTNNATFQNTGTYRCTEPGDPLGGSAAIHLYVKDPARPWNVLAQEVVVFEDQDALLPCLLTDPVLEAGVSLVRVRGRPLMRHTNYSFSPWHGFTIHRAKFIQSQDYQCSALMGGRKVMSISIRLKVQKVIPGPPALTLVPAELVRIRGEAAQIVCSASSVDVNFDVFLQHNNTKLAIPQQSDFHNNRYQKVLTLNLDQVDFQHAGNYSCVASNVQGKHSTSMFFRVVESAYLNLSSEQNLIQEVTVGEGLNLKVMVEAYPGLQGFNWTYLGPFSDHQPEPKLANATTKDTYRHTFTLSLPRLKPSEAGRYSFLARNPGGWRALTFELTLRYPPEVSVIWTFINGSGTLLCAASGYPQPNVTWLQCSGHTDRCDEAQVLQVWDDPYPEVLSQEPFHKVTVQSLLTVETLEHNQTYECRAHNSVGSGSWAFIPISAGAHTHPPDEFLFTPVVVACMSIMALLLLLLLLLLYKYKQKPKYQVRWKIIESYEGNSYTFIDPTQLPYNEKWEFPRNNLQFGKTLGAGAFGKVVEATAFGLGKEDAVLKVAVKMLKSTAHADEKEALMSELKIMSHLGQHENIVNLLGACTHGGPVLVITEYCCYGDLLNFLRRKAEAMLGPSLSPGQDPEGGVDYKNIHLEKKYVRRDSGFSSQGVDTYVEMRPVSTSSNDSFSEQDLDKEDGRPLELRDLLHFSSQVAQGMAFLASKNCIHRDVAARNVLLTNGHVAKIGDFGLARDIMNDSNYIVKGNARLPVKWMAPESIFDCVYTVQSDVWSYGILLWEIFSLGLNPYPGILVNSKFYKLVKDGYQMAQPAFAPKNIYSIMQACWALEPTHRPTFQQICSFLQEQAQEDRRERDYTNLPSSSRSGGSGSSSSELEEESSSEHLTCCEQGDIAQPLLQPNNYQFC
Assay: autophosphorylation, fluorescence polarization competition immunoassay for c-fms inhibition
Assay type: biochemical
Details: at 2 μM compound; 10 nM c-fms, 1 mM ATP
Method: The assay buffer used was 100 mM 4-(2-hydroxyethyl)piperazine 1-ethanesulfonic acid (HEPES), pH 7.5, 1 mM 1,4-dithio-DL-threitol (DTT), 0.01% (v/v) Tween-20. Compounds were diluted in assay buffer containing 4% dimethylsulfoxide (DMSO) just prior to the assay. […] The plates were incubated at room temperature for 45 min. […] The plate was covered, incubated for 30 min at room temperature and the fluorescence polarization was read on the Analyst. […]
Output spec: scalar in %, unitless text.

Ask: Returns the measured inhibition at 2 µM for the input compound. Input: `N#Cc1ccc(C(=O)Nc2ccccc2-c2ccccc2)o1`
Result: 54

Ask: Returns the measured inhibition at 2 µM for the input compound. Input: `N#Cc1ccc(C(=O)Nc2ccccc2C2CCCCC2)o1`
Result: 29

Ask: Returns the measured inhibition at 2 µM for the input compound. Input: `N#Cc1ccc(C(=O)Nc2ccccc2C2=CCCCC2)o1`
Result: 85

Ask: Returns the measured inhibition at 2 µM for the input compound. Input: `N#Cc1ccc(C(=O)Nc2ccccc2-c2ccco2)o1`
Result: 13

Ask: Returns the measured inhibition at 2 µM for the input compound. Input: `N#Cc1ccc(C(=O)Nc2ccccc2-c2cccs2)o1`
Result: 25

----------
pIC50: −log10 of the molar value.
readout.kind: pIC50

Ask: Please state recorded pIC50 (tested on UniProt:P07333) of `N#Cc1ccc(C(=O)Nc2ccccc2-c2ccccc2)o1`
Result: > 5.30
